experimental_protocol: recombinant UMI read abundance after kanamycin selection (control-corrected) (log10(CPM+1)); higher = more efficient recombination; extreme values may be limits of the assay; sequences stand for … in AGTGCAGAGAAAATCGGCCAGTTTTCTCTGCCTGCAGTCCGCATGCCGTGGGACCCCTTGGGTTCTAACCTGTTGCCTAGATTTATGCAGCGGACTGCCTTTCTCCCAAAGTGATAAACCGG…AGGTTGGTTTCACT; site = the 11-nt donor;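 also: IS621 bridge recombinase in Escherichia coli cells against a fixed T5 target plasmid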
Assign Y to entries whose recombinant UMI read abundance (log10) meets or exceeds 0.01; assign N to the rest.

# input Does recombinant UMI read abundance (log10) meet or surpass 0.01 for CCCGACACATGGACCGGTTTTCCCGGTAATCCGTATTTGTA (site CCCTACACTTA) ?
# output Y

# input Answer whether recombinant UMI read abundance (log10) of GTAATCTCATGGACCGGTTTTCCCGGTAATCCGTATTTGTA (site GTAATCTCTTA) is greater than or equal to 0.01.
# output Y

# input API: above_or_equal(metric=recombinant UMI read abundance (log10), cutoff=0.01) for item ATCCAAGCATGGACCGGTTTTCCCGGTAATCCGTATTTGGG (site ATCCAAGCTCA)
# output Y

# input Confirm if recombinant UMI read abundance (log10) reported for the sequence GTCGGTACATGGACCGGTTTTCCCGGTAATCCGTATTTGAC (site GTCGGTACTGT) is 0.01 or above.
# output Y

# input Threshold query (recombinant UMI read abundance (log10) >= 0.01) on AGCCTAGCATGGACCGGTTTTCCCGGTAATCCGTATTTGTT (site AGCCTAGCTAC)
# output N
